Values from patent US7714146B2

Biological target: human VEGFR-2 (Val789-Val1356) (Homo sapiens, UniProt P35968)
Construct: human VEGFR-2 (Val789-Val1356); GST (N); purchased Cell Signaling Technology; host or cells: baculovirus expression system
Sequence (P35968 789-1356): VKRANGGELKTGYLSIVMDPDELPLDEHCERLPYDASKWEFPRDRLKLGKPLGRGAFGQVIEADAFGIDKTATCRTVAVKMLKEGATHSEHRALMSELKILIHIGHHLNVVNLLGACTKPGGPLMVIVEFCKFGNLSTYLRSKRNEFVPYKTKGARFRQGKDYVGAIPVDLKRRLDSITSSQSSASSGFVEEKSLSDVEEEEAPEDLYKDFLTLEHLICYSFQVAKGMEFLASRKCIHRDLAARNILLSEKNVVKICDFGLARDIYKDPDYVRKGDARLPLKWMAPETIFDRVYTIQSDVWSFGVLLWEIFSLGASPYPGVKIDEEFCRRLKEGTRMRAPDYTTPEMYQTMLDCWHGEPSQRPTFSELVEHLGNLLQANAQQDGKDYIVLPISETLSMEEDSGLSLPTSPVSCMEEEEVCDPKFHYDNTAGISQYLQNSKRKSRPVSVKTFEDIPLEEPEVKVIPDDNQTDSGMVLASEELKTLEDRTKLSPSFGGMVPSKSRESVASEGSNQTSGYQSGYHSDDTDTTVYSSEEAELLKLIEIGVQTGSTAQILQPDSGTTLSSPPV
Experiment: KDR kinase assay (HTScan VEGFR-2 kit, DELFIA)
Assay type: biochemical
Conditions: compound at 1 μM; read-out: KDR 1 μM, % of inhibition relative to control
Experimental endpoint: inhibition at 1 µM (%)

O=C1Nc2ccc(Br)cc2/C1=C/c1ccc2cccccc1-2    29.7
O=C1Nc2ccc(F)cc2/C1=C\c1cc2cccccc-2c1    22.2
Cc1[nH]c(/C=C2\C(=O)Nc3ccc(F)cc32)c2ccc(=O)ccc12    32.2

(1) COc1ccc2c(c1)NC(=O)/C2=C/c1ccc2cccccc1-2
(2) Cc1cc(C)c2ccc(/C=C3/C(=O)N(Cc4ccccc4)c4ccccc43)c-2c(C)c1
(3) O=C1Nc2ccc(F)cc2/C1=C/c1ccc2cccccc1-2
(4) Cc1ccc2c(c1)/C(=C\c1c3cccccc-3nc1N)C(=O)N2
QUERY: Reorder the items by inhibition at 1 µM, least to greatest. Provide the labels, sequenced as the question asks.
RESULT: 1, 4, 2, 3
